Just for reference, PubChem BioAssay AID2060495 is where these values come from.

# Tested on: 521955-158-R2-J5-PDC complex spheroid viability;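 note: spheroids exposed to agents for one week before reading; 100% = DMSO vehicle control viability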
# assay_procedure: Anticancer human tumor 521955-158-R2-J5-PDC patient-derived pancreatic carcinoma cell line growth inhibition [GQUAD]
# test_parameters: second compound 10 µM; first compound 0.0316 µM; stronger effect = lower value
experimental_endpoint: viability, T/C

Completed entries (count: 9):
[[record]]
compound = "CC1COCCN1c1cc(C2(O)CC3CCC(C2)O3)c2cnn(-c3ccn[nH]3)c2n1 (stereo not given) + CN(C)c1ccc(Nc2c3ccc(NC(=O)CCN4CCCC4)cc3nc3cc(NC(=O)CCN4CCCC4)ccc23)cc1"
target_or_test_system = "521955-158-R2-J5-PDC complex spheroid viability"
reported = "49.3%"

[[record]]
compound = "COc1ccc([C@@H](O)c2cc(-c3ncnc4cc(N5CCOCC5)ccc34)c(F)cc2Cl)nn1 + Cc1[nH]c2ccc(F)cc2c1-c1nc2c3cccnc3c3ncccc3c2[nH]1"
target_or_test_system = "521955-158-R2-J5-PDC complex spheroid viability"
reported = "99.4%"

[[record]]
compound = "CC(=O)O[C@H]1C(=O)[C@@]2(C)[C@H]([C@H](OC(=O)c3ccccc3)[C@]3(O)C[C@H](OC(=O)[C@H](O)[C@@H](NC(=O)c4ccccc4)c4ccccc4)C(C)=C1C3(C)C)[C@]1(OC(C)=O)CO[C@@H]1C[C@@H]2O + Cc1[nH]c2ccc(F)cc2c1-c1nc2c3cccnc3c3ncccc3c2[nH]1"
target_or_test_system = "521955-158-R2-J5-PDC complex spheroid viability"
reported = "41.3%"

[[record]]
compound = "C=CCn1c(=O)c2cnc(Nc3ccc(N4CCN(C)CC4)cc3)nc2n1-c1cccc(C(C)(C)O)n1 + Cc1[nH]c2ccc(F)cc2c1-c1nc2c3cccnc3c3ncccc3c2[nH]1"
target_or_test_system = "521955-158-R2-J5-PDC complex spheroid viability"
reported = "68.7%"

[[record]]
compound = "O=c1[nH]cc(F)c(=O)[nH]1 + CN(C)c1ccc(Nc2c3ccc(NC(=O)CCN4CCCC4)cc3nc3cc(NC(=O)CCN4CCCC4)ccc23)cc1"
target_or_test_system = "521955-158-R2-J5-PDC complex spheroid viability"
reported = "58.5%"

[[record]]
compound = "COc1cccc2c1C(=O)c1c(O)c3c(c(O)c1C2=O)CC(O)(C(=O)CO)CC3OC1CC(N)C(O)C(C)O1 (stereo not given) + CN(C)c1ccc(Nc2c3ccc(NC(=O)CCN4CCCC4)cc3nc3cc(NC(=O)CCN4CCCC4)ccc23)cc1"
target_or_test_system = "521955-158-R2-J5-PDC complex spheroid viability"
reported = "61.9%"

[[record]]
compound = "Nc1ccn(C2OC(CO)C(O)C2(F)F)c(=O)n1 (stereo not given) + Cc1[nH]c2ccc(F)cc2c1-c1nc2c3cccnc3c3ncccc3c2[nH]1"
target_or_test_system = "521955-158-R2-J5-PDC complex spheroid viability"
reported = "109%"

[[record]]
compound = "CC(C)n1c(=O)n(C)c2cnc3cc(F)c(-c4ccc(OCCCN5CCCCC5)nc4)cc3c21 + Cc1cnc(CNC(=O)c2c(=O)c3ccc(N4CCCN(C)CC4)nc3n3c2sc2ccccc23)cn1"
target_or_test_system = "521955-158-R2-J5-PDC complex spheroid viability"
reported = "17.7%"

[[record]]
compound = "Cc1[nH]c2ccccc2c1CCNCc1ccc(/C=C/C(=O)NO)cc1 + Cc1cnc(CNC(=O)c2c(=O)c3ccc(N4CCCN(C)CC4)nc3n3c2sc2ccccc23)cn1"
target_or_test_system = "521955-158-R2-J5-PDC complex spheroid viability"
reported = "13.8%"


Okay, now this compound:
Exercise: Record CCCS(=O)(=O)Nc1ccc(F)c(C(=O)c2c[nH]c3ncc(-c4ccc(Cl)cc4)cc23)c1F + Cc1cnc(CNC(=O)c2c(=O)c3ccc(N4CCCN(C)CC4)nc3n3c2sc2ccccc23)cn1 : what is its viability, T/C with 521955-158-R2-J5-PDC complex spheroid viability?
Key: 9.58%
